- Test system: HepG2 (liver cancer)
- PROTOCOL_DETAILS: Cytotoxicity assay (SRB)
- Assay type: cell-based, human
- CONDITION_PARAMETERS: HepG2 cells, 72 h, mean ± SD
MEASURED_PARAMETER: IC50 (µM)

# MOLECULE, QUANTITATIVE_RESULT
measured = [
    ("CCCCCCCC1(O)CC(C=CC(C)(C)O)=CC1=O (single isomer, unassigned; (+)) [(+)-4, Euroticin I]", 19.9),
]

====

Examples of molecules with documented pIC50 follow.
- TESTED_TARGET: α-glucosidase
- PROTOCOL_DETAILS: α-Glucosidase inhibitory activity assay (PNPG substrate)
- CONDITION_PARAMETERS: pH 6.8, 37 °C
pIC50: −log10 of the molar value.
MEASURED_PARAMETER: pIC50

# MOLECULE, REPORTED_RELATION, QUANTITATIVE_RESULT
data = [
    ("CCCCC[C@H]1O[C@]2(C)Cc3c4c(cc(O)c3[C@H]1O2)C=CC(C)(C)O4 [(+)-1, Euroticin F]", "<", 4.00),
    ("CCCCCCCC1(O)CC(C=CC(C)(C)O)=CC1=O (single isomer, unassigned; (-)) [(−)-4, Euroticin I]", "<", 4.00),
    ("CC(C)=CCc1cc2c(c(C=O)c1O)C1C(O)CCC1C(C)O2 (single isomer, unassigned; (-)) [(−)-5, eurotirumin]", "<", 4.00),
    ("CO[C@H]1O[C@@H]2CC[C@@H]([C@H](C)O)[C@@H]2c2c(O)cc(CC=C(C)C)c(O)c21 [(+)-2, Euroticin G]", "=", 4.42),
    ("CCCCCC1(O)Cc2c3c(cc(O)c2C1=O)C=CC(C)(C)O3 (racemic) [(±)-3, Euroticin H]", "=", 4.79),
    ("CCCCC[C@@H]1O[C@@]2(C)Cc3c4c(cc(O)c3[C@@H]1O2)C=CC(C)(C)O4 [(−)-1, Euroticin F]", "<", 4.00),
    ("CO[C@@H]1O[C@H]2CC[C@H]([C@@H](C)O)[C@H]2c2c(O)cc(CC=C(C)C)c(O)c21 [(−)-2, Euroticin G]", "=", 4.10),
    ("CC(C)=CCc1cc2c(c(C=O)c1O)[C@@H]1[C@H](CC[C@@H]1O)[C@@H](C)O2 [(+)-5, eurotirumin]", "=", 4.05),
    ("CCCCCCCC1(O)CC(C=CC(C)(C)O)=CC1=O (single isomer, unassigned; (+)) [(+)-4, Euroticin I]", "<", 4.00),
]

Just for reference, paper PMC8538301 is where these values come from.
